src = patent US6777418B2

Test target: RAR gamma (Homo sapiens, UniProt P13631)
Sequence (P13631 whole entry): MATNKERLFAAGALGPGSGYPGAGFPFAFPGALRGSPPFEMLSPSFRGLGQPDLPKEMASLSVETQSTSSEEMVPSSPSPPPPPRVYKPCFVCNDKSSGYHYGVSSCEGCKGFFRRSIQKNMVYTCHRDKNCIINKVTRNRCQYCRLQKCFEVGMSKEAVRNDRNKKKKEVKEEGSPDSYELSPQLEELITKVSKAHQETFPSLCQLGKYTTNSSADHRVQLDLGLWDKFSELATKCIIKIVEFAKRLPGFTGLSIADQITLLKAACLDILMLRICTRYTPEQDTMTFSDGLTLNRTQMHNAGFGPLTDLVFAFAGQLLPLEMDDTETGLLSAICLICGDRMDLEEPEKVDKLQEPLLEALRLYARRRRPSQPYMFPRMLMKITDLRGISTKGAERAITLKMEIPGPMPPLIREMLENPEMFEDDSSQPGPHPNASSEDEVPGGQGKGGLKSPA
Experimental protocol: Ligand binding assay, retinoid receptors (Apfel et al.), RAR gamma
Settings: third value of the cell, read-out: IC50 nM (alpha/beta/gamma): gamma
Attribute measured: IC50 (nM)

a: CC1(C)CCC(C)(C)c2cc(CO)c(/C=C/c3ccc(C(=O)O)cc3)cc21 [Compound 15]
b: Cn1nnnc1SCc1cc2c(cc1/C=C/c1ccc(C(=O)O)cc1)C(C)(C)CCC2(C)C [Compound 25]
Task item: Please indicate which entry, a or b , has the lower recorded IC50 value. Selection: enter the item's label.
Reply: b
(b: 230 nM, a: 1800 nM)
